Value source: the supplement of paper PMC12613149

Experiment: reversed-phase LC retention time (C18, 15 min MeOH gradient); higher = more hydrophobic / later elution
Conditions: ionization mode: ESI+; ion species: [M+H]+
property: reversed-phase LC retention time (min)
Numeric only. Scale: min

Challenge: Which reversed-phase LC retention time is listed for CCNc1nc(O)nc(NC(C)C)n1 [2-Hydroxyatrazine] ?
Response given: 8.5

Challenge: Try the compound NC(=NCCCCCCN=C(N)N=C(N)Nc1ccc(Cl)cc1)N=C(N)Nc1ccc(Cl)cc1 [Chlorohexidine]
Response given: 12.4

Challenge: Try the compound CSC1=N[C@@](C)(c2ccccc2)C(=O)N1Nc1ccccc1 [Fenamidone]
Response given: 14.1

Challenge: Try the compound CC(C)N(C(=O)SCC(Cl)=C(Cl)Cl)C(C)C [Triallate]
Response given: 17.2

Challenge: Try the compound CCC(C)n1c(=O)[nH]c(C)c(Br)c1=O (stereo unspecified) [Bromacil]
Response given: 11.4

Challenge: Try the compound Cc1cccc(C)c1N(Cn1cccn1)C(=O)CCl [Metazachlor]
Response given: 12.9

* * *

Experiment: collision cross section (TIMS, N2 drift gas) of the primary ion; higher = larger gas-phase ion size
Settings: ionization mode: ESI+; ion species: [M+H]+
Structures can show the parent of a compound that is named as a salt.
property: collision cross section (Å²)
Numeric only. Scale: Å²

Challenge: Which collision cross section is listed for CC12CC3CC(C)(C1)CC(N)(C3)C2 [Memantine] ?
Response given: 144.78

Challenge: Try the compound Cc1cccc(C)c1N(Cn1cccn1)C(=O)CS(=O)CC(=O)O (stereo unspecified) [Metazachlor BH 479-9]
Response given: 175.08

Challenge: Try the compound CC(=O)[C@@]1(O)CC[C@H]2[C@@H]3C[C@H](C)C4=CC(=O)CC[C@]4(C)[C@H]3CC[C@@]21C [Medroxyprogesterone]
Response given: 187.34

Challenge: Try the compound C[C@H]1C[C@H]2[C@@H]3CCC4=CC(=O)C=C[C@]4(C)[C@@]3(Cl)[C@@H](O)C[C@]2(C)[C@@]1(O)C(=O)CO [Beclomethasone]
Response given: 192.43

Challenge: Try the compound CCC(=O)OCC(=O)C1(OC(=O)CC)C(C)CC2C3CCC4=CC(=O)C=CC4(C)C3(F)C(O)CC21C (stereo unspecified) [Betamethasone dipropionate]
Response given: 220.81

Challenge: Try the compound CCCC(Cn1cncn1)c1ccc(Cl)cc1Cl (stereo unspecified) [Penconazole]
Response given: 166.33

Challenge: Try the compound N=C(Nc1ccccc1)Nc1ccccc1 [1,3-Diphenylguanidine]
Response given: 150.19

Challenge: Try the compound CN1C(=O)CC[C@H]1c1cccnc1 [Cotinine]
Response given: 143.26

Challenge: Try the compound NC(=O)C1(N2CCCCC2)CCN(CCCC(=O)c2ccc(F)cc2)CC1 [Pipamperone]
Response given: 194.74

Challenge: Try the compound S=c1nc[nH]c2nc[nH]c12 [6-Mercaptopurine]
Response given: 126.69

Challenge: Try the compound CCCCOCCOCCOCCO [Triethylene Glycol Monobutyl Ether]
Response given: 143.71

Challenge: Try the compound CC(C(=O)O)c1cccc(C(=O)c2ccccc2)c1 (stereo unspecified) [Ketoprofen]
Response given: 158.88

Challenge: Try the compound CCCCOC(=O)CC(O)(CC(=O)OCCCC)C(=O)OCCCC [Tri-n-butyl citrate]
Response given: 203.87

Challenge: Try the compound Fc1ccc(C2(Cn3cncn3)OC2c2ccccc2Cl)cc1 (stereo unspecified) [Epoxiconazole]
Response given: 176.09

Challenge: Try the compound N#CCNC(=O)c1cnccc1C(F)(F)F [Flonicamid]
Response given: 149.83

Challenge: Try the compound Nc1ccc(Sc2ccc(N)cc2)cc1 [4,4'-Thiodianiline]
Response given: 164.43
